Ref: patent US20250115603A1

test: Solubility measurement at 50° C. (HPLC of saturated solution); format: physicochemical; conditions: dimethylformamide, 50 °C, organic solvent or mixture; by visual assessment
Where a name gives a salt, the structure may show the parent alone.
OBSERVABLE: solubility

Entry Cc1nc2c(F)c(-c3cccc(Cl)c3Cl)c(CCC#N)cc2c2c1cc(C1CC3C[C@H]3N1C(=O)C1CC1)n2C1[C@H]2CN[C@@H]1C2 (atropisomer, axis not shown; (Ra)) [Compound 1 HCl, monohydrochloride dihydrate] , solubility reported as > 50 mg/mL

====

test: Solubility measurement at 50° C. (HPLC of saturated solution); assay type: physicochemical; conditions: DMSO, 50 °C, organic solvent or mixture; by visual assessment
Where a name gives a salt, the structure may show the parent alone.
OBSERVABLE: solubility

Entry Cc1nc2c(F)c(-c3cccc(Cl)c3Cl)c(CCC#N)cc2c2c1cc(C1CC3C[C@H]3N1C(=O)C1CC1)n2C1[C@H]2CN[C@@H]1C2 (atropisomer, axis not shown; (Ra)) [Compound 1 HCl, monohydrochloride dihydrate] , solubility reported as > 50 mg/mL
